This section presents sequences with their documented log2 fold change of degron read counts values.
Target: T1, CRBN, Q96SW2;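 further: pooled lentiviral library of zinc finger degron-EGFP fusions in mCherry-positive Jurkat cells, FACS-sorted after compound exposure, with degron abundance counted by next-generation sequencing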
T1 chain: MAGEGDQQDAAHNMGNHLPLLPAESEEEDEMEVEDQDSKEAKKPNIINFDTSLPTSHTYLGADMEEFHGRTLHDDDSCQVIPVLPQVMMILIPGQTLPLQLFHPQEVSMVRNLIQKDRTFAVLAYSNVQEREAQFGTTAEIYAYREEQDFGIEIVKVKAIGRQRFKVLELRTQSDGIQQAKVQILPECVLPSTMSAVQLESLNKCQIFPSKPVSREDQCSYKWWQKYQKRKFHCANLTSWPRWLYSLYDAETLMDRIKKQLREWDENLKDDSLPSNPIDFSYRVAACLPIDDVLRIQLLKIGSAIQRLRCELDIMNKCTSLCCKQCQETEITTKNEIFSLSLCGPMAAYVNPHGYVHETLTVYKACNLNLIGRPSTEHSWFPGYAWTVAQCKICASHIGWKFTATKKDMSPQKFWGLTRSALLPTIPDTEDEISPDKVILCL
Test: log2 fold change of degron read counts, EGFP-low vs EGFP+ sorted cells (limma voom), compound-induced degradation; higher = more compound-induced degradation of the degron-EGFP fusion; degrons are variants of IKZF1/3 zinc finger 2; compound dose not given here
Details: Jurkat; 18 h; compound: thalidomide
In all, about 8,300 sequences were measured (“log2 fold change of degron read counts, EGFP-low vs EGFP+ sorted cells (limma voom), compound-induced degradation”: median about -1.1, highest 2% from about 3.2 on). The sample as a whole holds a higher share of the highest values than the screen did.
// response body must contain only the number

Examples with their reported log2 fold change of degron read counts follow.
sequence_record | log2 fold change of degron read counts
FVCNQCGACFTQKGNLLRHIKL [46F_47V_49N_50Q_52G_53A_54C_55F_67L_, Q9UKT9] | -1.14
FGCNICGAPFTQKGNLLRHIKL [46F_47G_49N_50I_52G_53A_54P_55F_67L_, Q9UKT9] | -0.248

Noted for FLCEQCGAEFTQKGNLLRHIKL [46F_47L_49E_50Q_52G_53A_54E_55F_67L_, Q9UKT9] : its log2 fold change of degron read counts reads -1.63

Noted for FTCNQCGANFTQKGNLLRHIKL [46F_47T_49N_50Q_52G_53A_54N_55F_67L_, Q9UKT9] : its log2 fold change of degron read counts reads -1.51

Noted for FGCPICGADFTQKGNLLRHIKL [46F_47G_49P_50I_52G_53A_54D_55F_67L_, Q9UKT9] : its log2 fold change of degron read counts reads 0.267

Noted for FWCNICGAFFTQKGNLLRHIKL [46F_47W_49N_50I_52G_53A_54F_55F_67L_, Q9UKT9] : its log2 fold change of degron read counts reads -0.294

Noted for FNCPQCGADFTQKGNLLRHIKL [46F_47N_49P_50Q_52G_53A_54D_55F_67L_, Q9UKT9] : its log2 fold change of degron read counts reads -3.69
